# assayedSystem: T1, human TfR extracellular domain with N-terminal His tag (human, UniProt P02786 89-760)
# T1 construct: Biotinylated in some assays; also called huTfR; HuTfR
# T1 sequence (P02786 89-760 G142S): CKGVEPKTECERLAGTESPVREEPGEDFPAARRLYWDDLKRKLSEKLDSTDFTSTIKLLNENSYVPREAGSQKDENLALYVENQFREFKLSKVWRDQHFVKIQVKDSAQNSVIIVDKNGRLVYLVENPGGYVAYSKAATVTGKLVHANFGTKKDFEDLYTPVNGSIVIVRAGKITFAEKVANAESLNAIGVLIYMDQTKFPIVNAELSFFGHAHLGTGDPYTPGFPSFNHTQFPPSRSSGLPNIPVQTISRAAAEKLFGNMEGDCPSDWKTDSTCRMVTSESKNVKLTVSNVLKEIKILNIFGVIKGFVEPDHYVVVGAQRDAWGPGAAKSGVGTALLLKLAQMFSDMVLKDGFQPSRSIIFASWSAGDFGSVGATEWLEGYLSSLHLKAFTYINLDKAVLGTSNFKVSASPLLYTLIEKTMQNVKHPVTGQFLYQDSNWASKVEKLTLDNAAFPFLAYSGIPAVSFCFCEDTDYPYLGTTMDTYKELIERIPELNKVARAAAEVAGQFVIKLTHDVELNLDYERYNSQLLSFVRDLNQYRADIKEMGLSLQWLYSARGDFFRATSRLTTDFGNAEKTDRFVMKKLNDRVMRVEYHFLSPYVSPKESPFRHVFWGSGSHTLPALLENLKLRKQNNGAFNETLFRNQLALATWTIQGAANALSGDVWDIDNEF
# assayProtocol: SPR, TfR captured by anti-His, Fab injected
measuredProperty: koff (s⁻¹)
Express the result in s⁻¹ but write the number alone.

Bench note: what koff did Hu15G11.HC53A Fab (Fab, V domains shown, Fab; also called 15G11.53A Fab) VH: EVQLVQSGAEVKKPGASVKVSCKASGYTFTSYWMHWVRQAPGQRLEWIGEINPANGRTNYIEKFKSRATLTVDKSASTAYMELSSLRSEDTAVYYCARGTRAYHYWGQGTMVTVSS VL: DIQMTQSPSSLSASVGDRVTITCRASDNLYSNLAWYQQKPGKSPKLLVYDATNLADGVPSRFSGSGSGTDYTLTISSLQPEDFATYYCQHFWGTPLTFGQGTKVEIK show?
0.0115
